# target: wt COX-2 (Homo sapiens)
# Construct: purchased Cayman Chemical Co. item no; 560131
# Sequence (P35354 18-604): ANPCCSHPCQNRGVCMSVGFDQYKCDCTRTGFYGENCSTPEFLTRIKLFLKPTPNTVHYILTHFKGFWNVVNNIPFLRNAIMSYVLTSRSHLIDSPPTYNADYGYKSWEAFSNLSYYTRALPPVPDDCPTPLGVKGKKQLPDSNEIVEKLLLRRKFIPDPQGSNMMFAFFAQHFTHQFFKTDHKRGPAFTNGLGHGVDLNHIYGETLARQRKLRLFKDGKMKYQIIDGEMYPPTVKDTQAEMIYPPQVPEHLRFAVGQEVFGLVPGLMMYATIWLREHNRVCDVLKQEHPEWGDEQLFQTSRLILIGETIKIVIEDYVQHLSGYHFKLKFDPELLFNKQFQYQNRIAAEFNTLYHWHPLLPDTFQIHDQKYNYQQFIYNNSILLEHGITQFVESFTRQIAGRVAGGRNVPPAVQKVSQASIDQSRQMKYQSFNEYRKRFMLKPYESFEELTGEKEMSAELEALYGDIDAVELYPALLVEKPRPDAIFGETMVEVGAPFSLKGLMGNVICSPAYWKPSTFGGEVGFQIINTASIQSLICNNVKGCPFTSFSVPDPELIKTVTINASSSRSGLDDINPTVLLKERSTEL
# method.notes: COX inhibitory enzyme immunoassay (COX-2)
# Type: biochemical
# assay.conditions: selectivity index COX-1/COX-2
readout.label: SI (IC50(COX-1)/IC50 (COX-2)

| molecule | relation.sign | measured.number |
| --- | --- | --- |
| O=c1c2ccccc2n(CCCCCCBr)c2ccccc12 [Compound 13d, 10-(6-Bromohexyl)acridin-9(10H)-one] | > | 2 |
| COc1cc(/C=C2\C(=O)N(CCCCCCn3c4ccccc4c(=O)c4ccccc43)c3ccccc32)cc(OC)c1O | = | 400 |
| COc1cc(/C=C2\C(=O)N(CCCCCn3c4ccccc4c(=O)c4ccccc43)c3ccccc32)cc(OC)c1O | = | 250 |
| Cn1cc(/C=C2\C(=O)N(CCCn3c4ccccc4c(=O)c4ccccc43)c3ccccc32)c2ccccc21 | > | 4.5 |
| O=C1NC(=O)C(=Cc2cn(CCCn3c4ccccc4c(=O)c4ccccc43)c3ccccc23)C(=O)N1 | > | 10 |
| COc1cc(/C=C2\C(=O)N(CCCn3c4ccccc4c(=O)c4ccccc43)c3ccccc32)cc(OC)c1O | > | 8 |
| O=Cc1cn(CCCCCCn2c3ccccc3c(=O)c3ccccc32)c2ccccc12 [Compound 15d] | > | 4 |
| Cn1cc(/C=C2\C(=O)N(CCCCCn3c4ccccc4c(=O)c4ccccc43)c3ccccc32)c2ccccc21 | = | 160 |
| Cn1cc(/C=C2\C(=O)N(CCCCCCn3c4ccccc4c(=O)c4ccccc43)c3ccccc32)c2ccccc21 | = | 350 |
| CN1C(=O)C(=Cc2cn(CCCCCCn3c4ccccc4c(=O)c4ccccc43)c3ccccc23)C(=O)N(C)C1=O | = | 15 |
| O=C1NC(=O)C(=Cc2cn(CCCCCn3c4ccccc4c(=O)c4ccccc43)c3ccccc23)C(=O)N1 | = | 400 |
